- test system: CB1 (CNR1) (Homo sapiens, UniProt P21554)
- Sequence (P21554 whole entry): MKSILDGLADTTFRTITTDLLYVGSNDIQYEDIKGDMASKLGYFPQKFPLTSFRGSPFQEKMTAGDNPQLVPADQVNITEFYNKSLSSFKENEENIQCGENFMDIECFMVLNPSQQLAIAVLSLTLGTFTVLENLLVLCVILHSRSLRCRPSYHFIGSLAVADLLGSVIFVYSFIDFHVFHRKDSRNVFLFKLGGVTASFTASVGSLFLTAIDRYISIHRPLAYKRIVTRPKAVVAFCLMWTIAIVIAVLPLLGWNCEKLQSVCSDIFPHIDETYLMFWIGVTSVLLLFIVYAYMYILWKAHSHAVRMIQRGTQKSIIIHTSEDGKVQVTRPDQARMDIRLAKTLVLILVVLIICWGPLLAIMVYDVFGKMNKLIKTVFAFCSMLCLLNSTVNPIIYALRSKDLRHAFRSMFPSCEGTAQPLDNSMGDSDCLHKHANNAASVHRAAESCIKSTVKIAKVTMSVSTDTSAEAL
- protocol: cAMP CNR1 Hunter cell line antagonist assay (CB1 assay)
- conditions: antagonist mode, cAMP CNR1 Hunter cells, EC80 agonist; read-out: CB1 assay, Efficacy (IC50)
pIC50: −log10 of the molar value.
parameter measured: pIC50

>>> value_measured("O=C1CCOc2cc(S(=O)(=O)Nc3ccc(OC(F)(F)F)cc3)c(Br)cc2N1 [BC19652]")
"≤ 4.60"
>>> value_measured("CC1Oc2c(cc(Br)cc2S(=O)(=O)Nc2cccc(F)c2)N(C)C1=O (stereo not drawn) [BC19902]")
"≤ 4.60"
>>> value_measured("CC1Oc2cc(S(=O)(=O)Nc3ccc(F)c(F)c3)c(Br)cc2N(C)C1=O (stereo not drawn) [BC19788]")
"4.60 to 6.00"
>>> value_measured("CC1Oc2c(cc(Br)cc2S(=O)(=O)Nc2ccc(F)cc2)N(C)C1=O (stereo not drawn) [BC19911]")
"≤ 4.60"
>>> value_measured("CCS(=O)(=O)c1cc2c(c(S(=O)(=O)Nc3ccc(C(C)C)cc3)c1)OCC(=O)N2 [BC19493]")
"≤ 4.60"
>>> value_measured("CCC1Oc2cc(S(=O)(=O)Nc3ccc(F)cc3F)c(Br)cc2N(C)C1=O (stereo not drawn) [BC19914]")
"4.60 to 6.00"
>>> value_measured("CC(C)CC1Oc2cc(S(=O)(=O)Nc3ccc(F)cc3F)c(Br)cc2NC1=O (stereo not drawn) [BC19770]")
"≤ 4.60"
>>> value_measured("CC1Oc2cc(S(=O)(=O)Nc3cccc(Cl)c3)c(Cl)cc2NC1=O (stereo not drawn) [BC19715]")
"> 6.00"
>>> value_measured("CC1Oc2c(cc(Cl)cc2S(=O)(=O)Nc2ccc(OC(F)(F)F)cc2)NC1=O (stereo not drawn) [BC19394]")
"≤ 4.60"
>>> value_measured("CCC1Oc2cc(S(=O)(=O)Nc3cccc(C(C)=O)c3)c(Cl)cc2NC1=O (stereo not drawn) [BC19282]")
"4.60 to 6.00"
>>> value_measured("Cc1ccc(NS(=O)(=O)c2cc(Br)cc3c2OC(CC(C)C)C(=O)N3)cc1Cl (stereo not drawn) [BC19767]")
"4.60 to 6.00"
>>> value_measured("COc1ccc(NS(=O)(=O)c2cc(Cl)cc3c2OC(C)C(=O)N3)cc1 (stereo not drawn) [BC19707]")
"≤ 4.60"
>>> value_measured("Cc1ccc(NS(=O)(=O)c2cc3c(cc2Br)N(C)C(=O)C(C)O3)cc1F (stereo not drawn) [BC19786]")
"≤ 4.60"
>>> value_measured("CCc1ccc(NS(=O)(=O)c2cc(Br)cc3c2OC(CC(C)C)C(=O)N3)cc1 (stereo not drawn) [BC19763]")
"4.60 to 6.00"
>>> value_measured("CCC1Oc2cc(S(=O)(=O)NCc3ccccc3)c(Br)cc2NC1=O (stereo not drawn) [BC19287]")
"4.60 to 6.00"
>>> value_measured("CCS(=O)(=O)c1cc2c(c(S(=O)(=O)Nc3ccccc3)c1)OCC(=O)N2 [BC19437]")
"≤ 4.60"
>>> value_measured("CCc1cccc(NS(=O)(=O)c2cc(Br)cc3c2OC(C)C(=O)N3)c1 (stereo not drawn) [BC19288]")
"4.60 to 6.00"
>>> value_measured("CC1C(=O)Nc2ccc(S(=O)(=O)N3CCCC3)cc2N1C (stereo not drawn) [BC19296]")
"4.60 to 6.00"
